Origin of measurements: ChEMBL document CHEMBL1961873

Each item that follows carries a reported inhibition.
targetOrTestSystem: Serine/threonine-protein kinase Chk1 (Homo sapiens) (UniProt O14757);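 note: reported figure is the mean percent inhibition of CHEK1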
Sequence (O14757 whole entry): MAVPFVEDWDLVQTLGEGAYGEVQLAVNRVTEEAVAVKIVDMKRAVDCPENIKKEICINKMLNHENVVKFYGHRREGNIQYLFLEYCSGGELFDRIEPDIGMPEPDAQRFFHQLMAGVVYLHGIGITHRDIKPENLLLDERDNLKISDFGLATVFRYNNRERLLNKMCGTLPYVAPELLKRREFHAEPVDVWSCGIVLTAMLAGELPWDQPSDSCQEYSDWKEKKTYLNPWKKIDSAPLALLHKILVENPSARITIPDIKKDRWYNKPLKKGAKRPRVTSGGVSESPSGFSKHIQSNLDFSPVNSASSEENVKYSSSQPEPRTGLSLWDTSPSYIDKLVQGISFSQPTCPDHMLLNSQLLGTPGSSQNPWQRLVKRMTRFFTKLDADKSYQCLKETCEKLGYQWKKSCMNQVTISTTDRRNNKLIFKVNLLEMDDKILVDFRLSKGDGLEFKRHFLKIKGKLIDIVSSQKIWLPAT
measurementSetup: at 0.1 µM
measuredAttribute: inhibition (%)

| molecule | testResult |
| --- | --- |
| CC(=O)Nc1cccc(C#Cc2cncnc2Nc2ccc(OCc3cccc(F)c3)c(Cl)c2)c1 | -1.89 |
| COc1cc(N2CCN(C(C)C)CC2)ccc1Nc1nc(Nc2ccc(F)cc2C(N)=O)c2cc[nH]c2n1 | 3.09 |
| COc1ccc(-c2cc3c(N)ncnc3o2)cc1 | 0.13 |
| CNC(=O)c1cccc(C#Cc2cncnc2Nc2ccc(OCc3cccc(F)c3)c(Cl)c2)c1 | -1.85 |
| COc1cccc(-n2ncc3c(N/N=C/c4ccc(F)cc4)ncnc32)c1 | 2.07 |
| CC1=C(C(=O)Nc2cc(Cl)c3[nH]ncc3c2)C(c2ccc(C(F)(F)F)cc2)CC(=O)N1 (stereo unspecified) | 8.32 |
| O=C(Nc1n[nH]c2cc(-c3ccc(F)cc3)ccc12)C1CC1 | 8.27 |
| COc1ccc(-c2nn3ncccc3c2-c2ccnc(Nc3ccc4c(c3)OCCO4)n2)cc1 | -2.62 |
| NS(=O)(=O)c1ccc(Nc2ncc(-c3ccccc3)o2)cc1 | 0.75 |
| CNC(=O)c1cc(-c2ccc(F)cc2)cc(-c2ccc(S(=O)(=O)N3CCCC3)cc2)c1N | 8.01 |
| CCCN1CCC(c2ccc(Nc3nc(Nc4cc(F)ccc4C(N)=O)c4cc[nH]c4n3)c(OC)c2)CC1 | 0.91 |
| COc1ccc2c(-c3ccnc(Nc4cccc(OC(F)(F)F)c4)n3)cnn2n1 | 3.59 |
| Clc1ccc(-c2nn3ncccc3c2-c2ccnc(Nc3ccccc3)n2)cc1 | -0.54 |
| COc1cc2ncn(-c3cc(OCc4ccccc4C(F)(F)F)c(C(=O)N(C)C)s3)c2cc1OC | -1.48 |
| NS(=O)(=O)c1ccc(N/N=C2\C(=O)Nc3ccc4ncccc4c32)cc1 | 7.46 |
| CC(=O)NCc1cccc(C#Cc2cncnc2Nc2ccc(OCc3cccc(F)c3)c(Cl)c2)c1 | -3.2 |
| [O-][S+]1CCN(Cc2ccc(-c3ccc4ncnc(Nc5ccc(OCc6cccc(F)c6)c(Cl)c5)c4c3)o2)CC1 | 7.38 |
| CCN(CC)S(=O)(=O)c1ccc(OC)c(Nc2ncc(-c3ccccc3)o2)c1 | 1.49 |
| Fc1ccc(-c2nn3ccccc3c2-c2ccncc2)cc1 | 0.22 |
| CCn1c(-c2nonc2N)nc2cnc(Oc3cccc(NC(=O)c4ccc(N(C)C)cc4)c3)cc21 | 0.31 |
| Fc1ccc(-c2cc(-c3c[nH]nc3-c3ccccn3)ccn2)cc1 | 1.21 |
